Measured values drawn from patent US20260285853A1 for this set.

pIC50 values for the compounds below.
tested on: HTT mRNA; assay: Splicing RT-qPCR assay (THP), Table 2A; format: cell-based; details: Table 2A (THP), CJ mRNA decrease, read-out: HTT CJ (decrease in canonical junction mRNA, IC50)
pIC50: −log10 of the molar value.

// below: answered compounds
CNC1CCCC(Oc2ccc(C(=O)Nc3cc4cn(C)nc4cc3OC)c3nn(C)cc23)C1 (stereo not shown) :: 5.00 to 6.00
COc1cnncc1NC(=O)c1c(F)cc(N2CCC(NC3CC3)CC2)c2cn(C)nc12 :: < 5.00
CCNC1CCN(c2ccc(C(=O)Nc3cc(C)c(=O)n(C)c3)c3nn(C)cc23)CC1 :: < 5.00
CC(=O)NCc1nc(C)cn2cc(NC(=O)c3c(F)cc(N4CCC(NC5CC5)CC4)c4cn(C)nc34)nc12 :: < 5.00
COc1cc2nccn2cc1NC(=O)c1ccc(N2CCC(NC3CC3)CC2)c2cn(C)nc12 :: < 5.00

[ask] Could you tell me which pIC50 is on file for Cn1cc2cc(NC(=O)c3c(F)cc(N4CCC(NC5CC5)CC4)c4cn(C)nc34)c(OC3CCOC3)cc2n1 (stereo not shown) ?
[reply] 6.00 to 7.00

[ask] Now consider "Cc1cn2cc(NC(=O)c3ccc(N4C[C@H](C)N[C@@H](C)C4)c4[nH]nnc34)cc(F)c2n1" and answer again.
[reply] < 5.00
